Molecular target: 4-aminobutyrate aminotransferase, mitochondrial (Homo sapiens)
Assay: Inhibition of GABA-AT (unknown origin)
Set-up: concentration or dose not given beside the values
Details: concentration not given here
READOUT: inhibition (%)
Field format: number, assumed %, no unit text.

Before answering, review these 6 worked examples.
COc1ccc(C/C=N/N)cc1 :: 66.6
COc1ccccc1C/C=N/N :: 60.1
Cc1cccc(C/C=N/N)c1 :: 75.4
N/N=C/Cc1ccc(C(F)(F)F)cc1 :: 33.2
Cc1ccccc1C/C=N/N :: 51.3
N/N=C/Cc1ccccc1Cl :: 56.1

Form field inhibition, entry `N/N=C/Cc1cccc(C(F)(F)F)c1` : 76

// inhibition lookup, compound = `N/N=C/Cc1ccccc1C(F)(F)F` , result: 46.3

---

Biological target: 4-aminobutyrate aminotransferase, mitochondrial (Homo sapiens) (UniProt P80404)
Sequence (P80404 whole entry): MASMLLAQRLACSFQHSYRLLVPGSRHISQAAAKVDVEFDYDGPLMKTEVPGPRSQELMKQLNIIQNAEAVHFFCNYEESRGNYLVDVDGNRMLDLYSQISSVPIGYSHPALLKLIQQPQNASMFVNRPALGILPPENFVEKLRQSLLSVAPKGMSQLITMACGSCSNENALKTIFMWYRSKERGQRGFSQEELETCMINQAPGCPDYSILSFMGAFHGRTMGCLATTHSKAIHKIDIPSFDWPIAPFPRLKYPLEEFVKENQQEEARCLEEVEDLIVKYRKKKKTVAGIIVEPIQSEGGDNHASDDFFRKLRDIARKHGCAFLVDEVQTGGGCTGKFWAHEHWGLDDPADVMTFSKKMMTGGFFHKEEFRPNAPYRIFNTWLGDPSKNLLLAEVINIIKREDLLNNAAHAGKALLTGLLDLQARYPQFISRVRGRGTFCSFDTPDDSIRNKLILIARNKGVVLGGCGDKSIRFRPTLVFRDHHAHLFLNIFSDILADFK
Experiment: Inhibition of GABA-AT (unknown origin)
Parameters: concentration or dose not given beside the values
Details: concentration not given here
# maps each entry to its inhibition
Just the number please, in %, no unit attached.

Guide cases for inhibition, answers given:
N/N=C/Cc1cccc(F)c1 :: 72.5
N/N=C/Cc1ccc(F)cc1 :: 61.6
N/N=C/Cc1ccccc1 :: 75.4
N/N=C/Cc1ccccc1F :: 62.9
N/N=C/Cc1ccc(Cl)cc1 :: 54.2
COc1cccc(C/C=N/N)c1 :: 77.6
N/N=C/Cc1ccc(Cl)cc1Cl :: 59
Cc1ccc(C/C=N/N)cc1 :: 70.4

Would you kindly look at the next entry?
// recorded inhibition for `N/N=C/Cc1cccc(Cl)c1` : 74.9
